Biological target: KRAS G12C-SOS1 (Homo sapiens (Human), UniProt Q07889)
Sequence (Q07889 whole entry, stated change not applied): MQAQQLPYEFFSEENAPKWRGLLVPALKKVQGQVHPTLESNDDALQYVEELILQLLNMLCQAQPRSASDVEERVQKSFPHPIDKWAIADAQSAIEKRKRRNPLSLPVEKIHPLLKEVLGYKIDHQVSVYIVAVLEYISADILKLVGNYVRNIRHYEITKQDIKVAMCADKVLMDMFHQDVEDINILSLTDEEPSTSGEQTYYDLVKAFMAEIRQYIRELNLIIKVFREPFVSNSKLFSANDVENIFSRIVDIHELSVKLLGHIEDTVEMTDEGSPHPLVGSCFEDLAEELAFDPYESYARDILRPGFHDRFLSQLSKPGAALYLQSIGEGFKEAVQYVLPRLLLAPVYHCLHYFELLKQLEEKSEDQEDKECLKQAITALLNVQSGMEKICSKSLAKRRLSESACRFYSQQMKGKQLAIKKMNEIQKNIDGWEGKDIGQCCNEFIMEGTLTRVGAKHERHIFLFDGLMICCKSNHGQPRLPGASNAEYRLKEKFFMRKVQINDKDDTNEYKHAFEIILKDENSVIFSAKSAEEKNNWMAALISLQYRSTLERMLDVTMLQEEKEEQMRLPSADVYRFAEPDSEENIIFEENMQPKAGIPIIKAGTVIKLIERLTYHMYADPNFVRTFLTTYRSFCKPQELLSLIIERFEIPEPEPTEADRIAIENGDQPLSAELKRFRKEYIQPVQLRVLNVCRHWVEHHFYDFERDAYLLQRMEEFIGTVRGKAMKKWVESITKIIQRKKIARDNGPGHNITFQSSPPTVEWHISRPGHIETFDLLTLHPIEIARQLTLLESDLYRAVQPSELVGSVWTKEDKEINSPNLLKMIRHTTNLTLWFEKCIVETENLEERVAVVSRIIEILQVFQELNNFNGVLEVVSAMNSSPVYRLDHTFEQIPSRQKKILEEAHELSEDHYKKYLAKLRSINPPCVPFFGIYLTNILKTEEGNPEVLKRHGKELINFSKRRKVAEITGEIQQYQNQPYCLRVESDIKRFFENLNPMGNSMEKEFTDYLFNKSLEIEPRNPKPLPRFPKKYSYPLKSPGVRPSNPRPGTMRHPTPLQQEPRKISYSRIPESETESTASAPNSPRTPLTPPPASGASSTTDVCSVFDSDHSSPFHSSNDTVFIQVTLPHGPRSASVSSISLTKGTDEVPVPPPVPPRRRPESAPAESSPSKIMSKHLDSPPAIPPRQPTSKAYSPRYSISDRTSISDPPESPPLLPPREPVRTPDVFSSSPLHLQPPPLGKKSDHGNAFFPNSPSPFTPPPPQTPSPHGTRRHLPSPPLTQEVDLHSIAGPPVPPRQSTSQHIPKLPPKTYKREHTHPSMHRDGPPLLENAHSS
Experiment: Inhibition test of compounds on KRAS G12C::SOS1 binding
Settings: GST-KRAS G12C, His-SOS1
Property: IC50 (nM)
Express it in nM; write the number only.

Tested on KRAS G12C-SOS1 (Homo sapiens (Human), UniProt Q07889): Cc1nc(N[C@H](C)c2cccc(S(F)(F)(F)(F)F)c2)c2cn(C3CC(F)(F)C3)c(=O)cc2n1 . Observed IC50: 16.1

Tested on KRAS G12C-SOS1 (Homo sapiens (Human), UniProt Q07889): Cc1nc(N[C@H](C)c2cccc(S(F)(F)(F)(F)F)c2)c2cn(C3(C(F)F)CC3)c(=O)cc2n1 . Observed IC50: 4.9

Tested on KRAS G12C-SOS1 (Homo sapiens (Human), UniProt Q07889): Cc1nc(N[C@H](C)c2cccc(S(=O)(=O)C(F)F)c2C)c2cn(C3(CF)CC3)c(=O)cc2n1 . Observed IC50: 6.87

Tested on KRAS G12C-SOS1 (Homo sapiens (Human), UniProt Q07889): Cc1nc(N[C@H](C)c2cccc(S(F)(F)(F)(F)F)c2)c2cn(C3(C)CCOCC3)c(=O)cc2n1 . Observed IC50: 6.9

Tested on KRAS G12C-SOS1 (Homo sapiens (Human), UniProt Q07889): Cc1nc(N[C@H](C)c2cccc(S(F)(F)(F)(F)F)c2)c2cn([C@H]3C[C@](C)(O)C3)c(=O)cc2n1 . Observed IC50: 14.4

Tested on KRAS G12C-SOS1 (Homo sapiens (Human), UniProt Q07889): Cc1nc(N[C@H](C)c2cccc(S(F)(F)(F)(F)F)c2)c2cn([C@H]3C[C@H](F)C3)c(=O)cc2n1 . Observed IC50: 9.5

Tested on KRAS G12C-SOS1 (Homo sapiens (Human), UniProt Q07889): Cc1nc(N[C@H](C)c2cccc(S(=O)(=O)C(F)F)c2F)c2cn(C3(CF)CC3)c(=O)cc2n1 . Observed IC50: 10
